# procedure-details: Henry solubility constant Hcp at 298.15 K (mol/(m3 Pa))
# test-settings: reference: Leighton and Calo (1981)
param class (str): category from Henry solubility constant Hcp; see ranges low class: < 0.0006; middle class: ≥ 0.0006 and < 0.003; high class: ≥ 0.003

molecule	label
ClCCCCl [1,3-dichloropropane]	high class
ClCC(Cl)Cl [1,1,2-trichloroethane]	high class

Exercise: read the entry CC(Cl)(Cl)Cl [1,1,1-trichloroethane] and state which class it falls under. low class

Further, for ClC(Cl)C(Cl)Cl [1,1,2,2-tetrachloroethane] ? high class

Further, for CCCCCCCl [1-chlorohexane] ? low class

Further, for CC(Cl)CCl (stereo not given) [1,2-dichloropropane] ? high class

Further, for ClC(Cl)(Cl)Cl [tetrachloromethane] ? low class

Further, for C=C(Cl)Cl [1,1-dichloroethene] ? low class

Further, for ClCC(Cl)CCl [1,2,3-trichloropropane] ? high class

Further, for c1ccccc1 [benzene] ? middle class

Further, for Cc1ccccc1 [methylbenzene] ? middle class

Further, for CCC(C)Cl (stereo not given) [2-chlorobutane] ? low class

Further, for ClCCCCCCl [1,5-dichloropentane] ? high class

Further, for ClC=C(Cl)Cl [trichloroethene] ? middle class

Further, for CCCCCCl [1-chloropentane] ? low class

Further, for ClCCCCCl [1,4-dichlorobutane] ? high class

---

# procedure-details: Henry solubility constant Hcp at 298.15 K (mol/(m3 Pa))
# test-settings: reference: Leighton and Calo (1981)
assay-readout: Henry solubility constant Hcp
// no unit string in output, number only

Some solved entries appear below for comparison.
compound	Henry solubility constant Hcp
ClCCl [dichloromethane]	0.003
ClC(Cl)=C(Cl)Cl [tetrachloroethene]	0.00061
CCCCCl [1-chlorobutane]	0.00059

Okay, next one:
Please report the recorded Henry solubility constant Hcp for Clc1ccccc1 [chlorobenzene] . 0.003
